systemName: Nitric oxide synthase 3 (Mus musculus)
Sequence (whole entry): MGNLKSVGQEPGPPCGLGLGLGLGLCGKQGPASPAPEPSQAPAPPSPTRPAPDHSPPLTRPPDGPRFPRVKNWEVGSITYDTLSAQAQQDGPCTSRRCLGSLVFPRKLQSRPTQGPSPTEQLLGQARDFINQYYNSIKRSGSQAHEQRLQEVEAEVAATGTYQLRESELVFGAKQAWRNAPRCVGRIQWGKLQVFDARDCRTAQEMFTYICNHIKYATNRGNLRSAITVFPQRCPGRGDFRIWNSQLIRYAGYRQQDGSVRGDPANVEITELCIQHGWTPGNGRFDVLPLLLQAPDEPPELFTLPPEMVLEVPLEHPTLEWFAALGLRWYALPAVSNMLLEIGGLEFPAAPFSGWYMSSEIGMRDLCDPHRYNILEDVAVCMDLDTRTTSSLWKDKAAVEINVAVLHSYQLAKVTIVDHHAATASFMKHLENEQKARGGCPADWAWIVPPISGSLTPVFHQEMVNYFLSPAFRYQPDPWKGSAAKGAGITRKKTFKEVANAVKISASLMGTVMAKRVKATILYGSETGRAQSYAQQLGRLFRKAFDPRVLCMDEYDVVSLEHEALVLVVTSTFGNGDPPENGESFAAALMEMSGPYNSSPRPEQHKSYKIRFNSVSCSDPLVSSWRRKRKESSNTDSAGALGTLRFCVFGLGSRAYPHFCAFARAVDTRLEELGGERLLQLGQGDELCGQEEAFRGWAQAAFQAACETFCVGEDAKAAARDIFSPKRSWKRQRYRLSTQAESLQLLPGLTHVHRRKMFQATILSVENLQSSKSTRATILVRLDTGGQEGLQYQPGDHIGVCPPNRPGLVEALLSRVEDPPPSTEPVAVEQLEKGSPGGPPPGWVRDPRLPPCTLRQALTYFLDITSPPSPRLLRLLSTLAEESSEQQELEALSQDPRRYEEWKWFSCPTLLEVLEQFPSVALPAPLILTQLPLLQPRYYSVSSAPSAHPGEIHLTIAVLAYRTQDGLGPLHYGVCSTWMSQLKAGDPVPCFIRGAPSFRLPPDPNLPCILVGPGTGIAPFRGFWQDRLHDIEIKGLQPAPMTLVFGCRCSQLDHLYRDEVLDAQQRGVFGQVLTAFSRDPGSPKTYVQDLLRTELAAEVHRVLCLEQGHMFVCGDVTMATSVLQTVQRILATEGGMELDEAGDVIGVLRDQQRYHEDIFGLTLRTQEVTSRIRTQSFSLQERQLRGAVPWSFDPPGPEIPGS
assayExplanation: Nitric oxide (NO) formation during oxidation of NADPH and O2, catalyzed by NOS III was detected spectrophotometrically using hemoglobin assay
Type: functional
testReadout: NOHA

Worked examples follow.
{"columns": ["structureNotation", "NOHA"],
 "data": [
  ["N/C(=N/c1cccc(N)c1)NO", "6.5%"],
  ["N/C(=N/c1ccc(O)cc1)NO", "< 0.2%"],
  ["N=C(NO)Nc1ccc(Cl)cc1", "< 0.2%"],
  ["N/C(=N/c1ccc(N)cc1)NO", "< 0.2%"]
]}

Task item: Output measured NOHA for this item: N/C(=N/c1cccc(CO)c1)NO
Reply: < 0.2%

Task item: Output measured NOHA for this item: COc1ccc(NC(=N)NO)cc1
Reply: < 0.2%

Task item: Output measured NOHA for this item: Cc1ccc(NC(=N)NO)cc1
Reply: < 0.2%

Task item: Output measured NOHA for this item: N=C(NO)Nc1ccccc1
Reply: < 0.2%

Task item: Output measured NOHA for this item: N/C(=N/c1ccc(F)cc1)NO
Reply: < 0.2%

* * *

systemName: Nitric oxide synthase, inducible (Mus musculus) (UniProt P29477)
assayExplanation: Nitric oxide (NO) formation during oxidation of NADPH and O2, catalyzed by NOS II detected spectrophotometrically using hemoglobin assay.
Type: functional
testReadout: NOHA (%)

Worked examples follow.
{"columns": ["structureNotation", "NOHA (%)"],
 "data": [
  ["N/C(=N/c1ccc2c[nH]nc2c1)NO", 2.5],
  ["N/C(=N/c1ccc(O)cc1)NO", 16.5],
  ["N/C(=N/c1ccc(C(F)(F)F)cc1)NO", 0.5]
]}

I: N/C(=N/c1ccccc1Cl)NO
II: Cc1ccc(NC(=N)NO)cc1
Task item: # returns the entry with the larger NOHA; inputs I and II Lab note: record the label of whichever item you select.
Reply: II
(II: 17.5%, I: 5%)

* * *

systemName: Nitric oxide synthase 1 (Rattus norvegicus) (UniProt P29476)
Sequence (P29476 whole entry): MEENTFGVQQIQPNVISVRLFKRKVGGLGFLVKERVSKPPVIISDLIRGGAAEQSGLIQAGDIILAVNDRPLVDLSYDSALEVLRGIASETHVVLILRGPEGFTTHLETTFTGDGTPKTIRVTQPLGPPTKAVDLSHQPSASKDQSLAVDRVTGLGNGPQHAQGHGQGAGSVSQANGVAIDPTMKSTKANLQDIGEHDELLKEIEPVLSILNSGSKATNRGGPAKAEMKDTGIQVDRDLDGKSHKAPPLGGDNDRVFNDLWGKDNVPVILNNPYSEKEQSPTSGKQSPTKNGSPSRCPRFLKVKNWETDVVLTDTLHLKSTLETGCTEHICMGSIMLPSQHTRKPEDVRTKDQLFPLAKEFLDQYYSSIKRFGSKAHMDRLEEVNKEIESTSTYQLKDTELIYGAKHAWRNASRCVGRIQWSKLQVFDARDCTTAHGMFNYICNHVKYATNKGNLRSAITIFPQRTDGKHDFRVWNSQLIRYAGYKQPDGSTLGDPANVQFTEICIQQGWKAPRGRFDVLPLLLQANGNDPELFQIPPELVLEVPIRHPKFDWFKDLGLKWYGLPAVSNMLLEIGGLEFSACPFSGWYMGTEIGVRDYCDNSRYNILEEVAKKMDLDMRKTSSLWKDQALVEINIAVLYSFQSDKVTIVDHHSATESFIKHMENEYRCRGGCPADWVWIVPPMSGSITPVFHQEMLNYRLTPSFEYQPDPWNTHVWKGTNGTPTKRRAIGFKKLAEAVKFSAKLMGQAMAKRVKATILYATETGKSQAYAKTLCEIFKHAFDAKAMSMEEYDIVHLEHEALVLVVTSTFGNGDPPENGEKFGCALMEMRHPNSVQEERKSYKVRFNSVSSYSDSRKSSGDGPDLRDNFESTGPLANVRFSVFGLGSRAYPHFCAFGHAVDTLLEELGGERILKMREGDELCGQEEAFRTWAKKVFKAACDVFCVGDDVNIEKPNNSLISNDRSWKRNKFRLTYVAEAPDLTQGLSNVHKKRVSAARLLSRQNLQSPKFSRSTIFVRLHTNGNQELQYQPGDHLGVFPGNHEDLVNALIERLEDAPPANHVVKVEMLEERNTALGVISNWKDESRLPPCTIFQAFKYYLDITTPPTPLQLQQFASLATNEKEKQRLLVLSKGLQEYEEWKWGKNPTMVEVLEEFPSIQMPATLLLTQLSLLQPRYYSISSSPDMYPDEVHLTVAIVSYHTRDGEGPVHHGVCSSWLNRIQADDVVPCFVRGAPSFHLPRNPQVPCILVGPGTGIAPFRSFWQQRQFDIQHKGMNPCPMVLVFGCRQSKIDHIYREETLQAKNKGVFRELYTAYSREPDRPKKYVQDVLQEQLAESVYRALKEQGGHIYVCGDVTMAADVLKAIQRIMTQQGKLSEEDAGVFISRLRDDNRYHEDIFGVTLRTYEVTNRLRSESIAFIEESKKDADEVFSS
assayExplanation: Nitric oxide (NO) formation during oxidation of NADPH and O2, catalyzed by NOS I was detected spectrophotometrically using hemoglobin assay
Type: functional
testReadout: NOHA (%)

Worked examples follow.
{"columns": ["structureNotation", "NOHA [%]"],
 "data": [
  ["N/C(=N/c1cccc(N)c1)NO", 2.5],
  ["N/C(=N/c1ccc(N)cc1)NO", 4.5],
  ["N/C(=N/c1ccc(F)cc1)NO", 4.5]
]}

a: COc1ccc(NC(=N)NO)cc1
b: N=C(NO)Nc1ccccc1
c: N/C(=N/c1ccc(O)cc1)NO
Task item: Form: Sort by [NOHA] Order [ ascending ] Please write the labels in the order that was asked for.
Reply: b, a, c

* * *

systemName: Nitric oxide synthase, inducible (Mus musculus)
Sequence (whole entry): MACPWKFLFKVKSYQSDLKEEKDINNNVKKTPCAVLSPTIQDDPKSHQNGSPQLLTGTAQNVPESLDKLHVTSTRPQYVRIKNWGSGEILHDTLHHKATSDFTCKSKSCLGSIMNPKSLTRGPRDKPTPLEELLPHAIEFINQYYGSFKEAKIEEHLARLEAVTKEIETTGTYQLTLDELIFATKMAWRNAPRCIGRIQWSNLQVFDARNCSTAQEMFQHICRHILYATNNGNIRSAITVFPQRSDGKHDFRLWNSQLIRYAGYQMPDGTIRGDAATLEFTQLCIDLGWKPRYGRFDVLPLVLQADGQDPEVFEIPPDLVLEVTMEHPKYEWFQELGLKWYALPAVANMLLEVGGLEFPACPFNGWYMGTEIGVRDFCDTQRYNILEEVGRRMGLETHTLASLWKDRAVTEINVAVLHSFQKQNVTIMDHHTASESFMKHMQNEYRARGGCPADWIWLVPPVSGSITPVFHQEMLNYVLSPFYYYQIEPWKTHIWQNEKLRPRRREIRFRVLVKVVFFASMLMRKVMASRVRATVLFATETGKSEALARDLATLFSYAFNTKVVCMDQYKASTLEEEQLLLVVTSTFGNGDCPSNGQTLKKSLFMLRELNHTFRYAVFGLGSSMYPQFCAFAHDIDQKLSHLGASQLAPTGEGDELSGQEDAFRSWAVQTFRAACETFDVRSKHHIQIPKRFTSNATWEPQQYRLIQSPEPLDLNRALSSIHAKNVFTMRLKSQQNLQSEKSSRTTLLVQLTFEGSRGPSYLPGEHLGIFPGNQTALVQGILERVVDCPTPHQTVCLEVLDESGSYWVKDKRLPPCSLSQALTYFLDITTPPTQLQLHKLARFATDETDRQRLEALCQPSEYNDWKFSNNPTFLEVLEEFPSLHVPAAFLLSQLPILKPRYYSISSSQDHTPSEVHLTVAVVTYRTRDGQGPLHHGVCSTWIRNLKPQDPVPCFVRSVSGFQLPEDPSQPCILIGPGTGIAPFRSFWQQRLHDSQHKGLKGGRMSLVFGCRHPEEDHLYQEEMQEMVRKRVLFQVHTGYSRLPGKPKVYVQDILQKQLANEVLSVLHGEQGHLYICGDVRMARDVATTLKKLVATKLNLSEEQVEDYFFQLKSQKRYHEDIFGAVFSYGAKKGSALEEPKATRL
assayExplanation: Kinetic constant for NO formation during transformation of oxyhemoglobin to methemoglobin using NADPH and molecular Oxygen in the presence of (NOS II)
Assay type: functional
testReadout: k cat (s⁻¹)

Worked examples follow.
{"columns": ["compound", "displayUnit", "k cat"],
 "data": [
  ["N/C(=N/CCCC(N)C(=O)O)NO (configuration not stated)", "s⁻¹", 7.08],
  ["Cc1ccc(NC(=N)NO)cc1", "s⁻¹", 4.92],
  ["N=C(NO)Nc1ccccc1", "s⁻¹", 2.17],
  ["N/C(=N/c1ccc(F)cc1)NO", "s⁻¹", 5.83],
  ["COc1ccc(NC(=N)NO)cc1", "s⁻¹", 2.42]
]}

A: N/C(=N/c1ccc(O)cc1)NO
B: N/C(=N/c1ccsc1)NO
Task item: For A and B , which recorded k cat is lower? Lab note: record the label of whichever item you select.
Reply: B

* * *

systemName: Nitric oxide synthase, inducible (Mus musculus) (UniProt P29477)
Sequence (whole entry): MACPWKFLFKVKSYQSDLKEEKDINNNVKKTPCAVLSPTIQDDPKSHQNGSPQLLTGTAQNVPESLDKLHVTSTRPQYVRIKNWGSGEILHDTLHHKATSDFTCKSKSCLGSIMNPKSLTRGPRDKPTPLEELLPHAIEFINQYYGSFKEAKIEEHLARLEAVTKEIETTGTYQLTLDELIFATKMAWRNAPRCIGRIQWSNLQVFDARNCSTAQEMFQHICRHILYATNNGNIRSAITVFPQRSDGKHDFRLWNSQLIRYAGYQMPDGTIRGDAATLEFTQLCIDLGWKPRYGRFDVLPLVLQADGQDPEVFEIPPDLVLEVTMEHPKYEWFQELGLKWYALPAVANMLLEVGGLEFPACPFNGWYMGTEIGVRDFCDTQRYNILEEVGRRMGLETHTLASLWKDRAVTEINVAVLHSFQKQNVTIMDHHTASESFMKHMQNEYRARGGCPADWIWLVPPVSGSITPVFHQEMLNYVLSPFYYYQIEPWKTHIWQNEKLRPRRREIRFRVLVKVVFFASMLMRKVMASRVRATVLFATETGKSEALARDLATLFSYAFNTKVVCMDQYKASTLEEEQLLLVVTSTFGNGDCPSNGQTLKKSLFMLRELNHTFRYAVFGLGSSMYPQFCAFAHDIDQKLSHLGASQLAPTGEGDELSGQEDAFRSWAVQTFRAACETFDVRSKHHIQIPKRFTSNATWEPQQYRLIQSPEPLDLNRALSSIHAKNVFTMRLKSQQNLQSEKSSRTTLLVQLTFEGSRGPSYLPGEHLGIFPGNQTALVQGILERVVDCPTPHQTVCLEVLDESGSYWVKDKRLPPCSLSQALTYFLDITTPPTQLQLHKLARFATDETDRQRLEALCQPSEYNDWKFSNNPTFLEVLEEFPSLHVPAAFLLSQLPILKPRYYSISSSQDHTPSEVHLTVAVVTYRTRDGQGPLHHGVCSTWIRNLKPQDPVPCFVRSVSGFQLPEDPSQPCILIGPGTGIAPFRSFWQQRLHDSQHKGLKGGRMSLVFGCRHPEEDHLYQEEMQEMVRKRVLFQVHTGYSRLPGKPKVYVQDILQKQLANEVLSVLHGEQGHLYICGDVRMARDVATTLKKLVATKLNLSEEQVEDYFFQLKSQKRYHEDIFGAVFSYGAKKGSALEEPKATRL
assayExplanation: Nitric oxide (NO) formation during oxidation of NADPH and O2, catalyzed by NOS II detected spectrophotometrically using hemoglobin assay.
Type: functional
testReadout: NOHA (%)

Worked examples follow.
{"columns": ["structureNotation", "systemName", "testValue"],
 "data": [
  ["N/C(=N/c1ccc(Br)cc1)NO", "Nitric oxide synthase, inducible (Mus musculus) (UniProt P29477)", 7.5],
  ["N/C(=N/c1ccc(F)cc1)NO", "Nitric oxide synthase, inducible (Mus musculus) (UniProt P29477)", 41],
  ["N/C(=N/c1ccc([N+](=O)[O-])cc1)NO", "Nitric oxide synthase, inducible (Mus musculus) (UniProt P29477)", 2],
  ["N=C(NO)NCc1ccccc1", "Nitric oxide synthase, inducible (Mus musculus) (UniProt P29477)", 15]
]}

A: N=C(NO)Nc1ccccc1
B: N/C(=N/c1cccc(C(F)(F)F)c1)NO
C: N/C(=N/c1ccsc1)NO
D: N/C(=N/c1cccc(CO)c1)NO
Task item: Form: Sort by [NOHA] Order [ ascending ] Please write the labels in the order that was asked for.
Reply: B, D, C, A

Data provenance: ChEMBL document CHEMBL1135725
